# Lookup of reported Inhibition keyed by entry
system: Pseudomonas aeruginosa; conditions: Concentration 300 ug.mL-1; ASSAY_TEST Inhibition of Bacterial Growth; detection method Absorption (OD600); MEDIA CAMHB; plate type 384well; NBS; CORNING #3640; time 18 hr
Description: Antibacterial activity against Pseudomonas aeruginosa ATCC 27853 (CO-ADD:GN_042); MIC in CAMBH media using NBS plates, by OD(600)
Among all 23,000 compounds or so, about 30 (0.1%) showed an effect of 50% or more. The list comes from a sample in which strong results are over-represented; it also holds close analogues and randomly drawn compounds. Entries with a potency or affinity are not part of this list.
measured endpoint: Inhibition (%)

compound | observed
CCOC(=O)CNC(=O)N1CCn2cccc2C1C (stereo not drawn) | -25.66
CC(Sc1ccccc1Cl)C(=O)NCC(=O)N(C)C (stereo not drawn) | 4.5
Cc1n[nH]c(C)c1S(=O)(=O)N1CCN(C)CC1 | 33.93
CCc1n[nH]c(=O)n1CC | 16.77
O=C(NCc1ccc2c(c1)OCCCO2)c1cscn1 | 14.64
CNCCCNC(=O)CCc1ccsc1 | -24.67
NS(=O)(=O)c1ccc(NC(=O)Cn2ccnc2)cc1 | 5.95
CNC1(C(=O)OC)CCCCC1 | -2.18
c1ccc(-c2nc3c([nH]2)CCNC3)cc1 | 7.84
COC(=O)c1ccc(=O)n(CC(=O)NCCC(C)C)c1 | 4.64
Cc1noc(C)c1CCC(=O)NC(C)c1ccccn1 (stereo not drawn) | -45.2
CCc1nc(CNC(=O)C2CCCO2)cs1 (stereo not drawn) | 6.65
COc1ccc(CN2C[C@H](O)[C@@H](N(C)C)C2)c(C)c1C | 27.33

---

tested on: Pseudomonas aeruginosa; conditions: Concentration 300 ug.mL-1; ASSAY_TEST Inhibition of Bacterial Growth; detection method Absorption (OD600); MEDIA CAMHB; plate type 384well; NBS; CORNING #3640; time 18 hr
In all, about 23,000 compounds went through this assay and about 30 (0.1%) showed an effect of 50% or more. Many of the other results were omitted from the sample, so strong results are more common in it than they were. Measured potencies and affinities stand elsewhere.
measured endpoint: Inhibition

compound | observed
O=C(CCN1CCC(CO)CC1)Nc1ccccc1F | 3.62%
COc1cccc(-c2ccc(CNS(N)(=O)=O)cc2)c1 | 23.3%
Cc1cc(NC(=O)CSCC(=O)N2CCC2)no1 | 7.6%
CN(Cc1cccc(C#N)c1)C(=O)C1CC1 | 11.31%
CCn1nc(C)c(CN2CCCCC(N)C2)c1C (stereo not drawn) | 14.9%
CN(CCNC(=O)c1cnc[nH]1)Cc1ccc(F)cc1 | 37.03%
CSCCC(O)C(=O)NCCc1scnc1C (stereo not drawn) | -25.65%
COCCN(Cc1ccccn1)C(=O)CC1CCNC1 (stereo not drawn) | -0.17%
Cc1cc(C(=O)O)cc(N2C[C@H](C3CC3)[C@@H](N)C2)n1 | -2.3%
O=C1C=CC(=O)N1C1CCCCC1 | 14.45%
CC(=O)c1ccc(CNc2nccnc2C#N)nc1C | 14.58%
O=C(Cc1ccsc1)N[C@@H]1CCOC[C@H]1OCCO | 1.98%
COc1c(C)cnc(CNC(=O)CSC)c1C | 1.37%

---

test system: Pseudomonas aeruginosa; conditions: Concentration 300 ug.mL-1; ASSAY_TEST Inhibition of Bacterial Growth; detection method Absorption (OD600); MEDIA CAMHB; plate type 384well; NBS; CORNING #3640; time 18 hr
The whole screen tested about 23,000 compounds, of which about 30 (0.1%) showed an effect of 50% or more. This excerpt belongs to a sample that is enriched for strong results. Entries with a potency or affinity are not part of this list.
measured endpoint: Inhibition

compound | observed
CN1CCOC[C@H]2CCN(C(=O)c3cccs3)C[C@H]21 | -22.95%
CCN(CC)C(=O)[C@@H]1C[C@@H](N)CN1C(=O)CS(C)(=O)=O | 7.51%
O=c1ccoc2ccc(F)cc12 | 24.86%
Cc1cccc(C)c1-n1nnnc1SCC(N)=O | 21.56%
COCCNCC(=O)Nc1cccc(CSC)c1 | 7.12%
O=S1(=O)CCC(NCc2csc(-c3ccccn3)n2)C1 (stereo not given) | 17.32%
NC(=O)C1=NOC(CNCc2ccccc2Cl)C1 (stereo not given) | 23%
OCc1cccc2ncccc12 | -43.09%
CC1CCN(CCNC(=O)c2cnccn2)CC1 | -12.84%
O=C(c1cc(F)ccc1Br)N1CCNCC1 | -21.94%
O=C(c1nnsc1-c1ccc(Cl)cc1)N1CCSCC1 | -1.35%
CC(SCCN1CCOCC1)C(=O)N(C)C(C)C (stereo not given) | 5.48%
Cc1noc(CN(C)CCC2CCOCC2)n1 | -10.62%
CNC(=O)NC(=O)C(C)N1CCN(c2nccs2)CC1 (stereo not given) | 0.51%
Cc1cc(C)cc(NC(=O)CNCCCO)c1 | 5.1%
CC(=O)NCCCNCc1ccc(Br)c2cccnc12 | 29.22%
CC1(CO)COCCN1Cc1ccccc1 (stereo not given) | 11.96%
Fc1ccc2[nH]cnc2c1 | 26.41%
Cc1noc(CN2CCN(S(C)(=O)=O)CC2)n1 | -16.86%
N#Cc1cccc(CN2CCCC(O)C2)c1 (stereo not given) | 9.18%
CCC(C)NC(=O)NCc1ccc(-n2ccnc2)nc1 (stereo not given) | 14.1%
NC(=O)CCNCc1ccc(Cl)c2cccnc12 | 17.51%
CN(C)CCCOc1cccc(CN2CC(O)C2)c1 | 2%
CNC1CC(=O)N(Cc2ccccc2)C1=O (stereo not given) | -1.73%
CCS(=O)(=O)NC1CCN(C(=O)c2cccc(F)c2)C1 (stereo not given) | 13%
CN1CCN(C(=O)C2COc3ccccc3O2)CC1=O (stereo not given) | 3.72%
COc1cn(C)c(C(=O)NCc2ccco2)cc1=O | 21.6%
Clc1ccc(-c2noc(CN3CCCNCC3)n2)cc1 | 46.35%
CCNC(=O)Nc1c[nH]nc1C1CCCNC1 (stereo not given) | 15.62%
COc1cc(C(=O)N[C@@H]2CC[C@@H](N)C2)ccc1F | 12.15%
CNC(=O)C1CCN(CCCOc2ccccc2)CC1 | 24.15%
CC1(C)C[S+]([O-])CCN1C(=O)c1cccc(F)c1Cl (stereo not given) | 17.16%
NC(=O)c1cc(N2CCCC2)ccn1 | -17.78%
CCc1ccc(CN(CCO)Cc2nccn2C)nc1 | -17.17%
NC1CCCc2c(F)cccc21 (stereo not given) | 23.88%
CCCNC(=O)CCNC(=O)NCC | 0.02%
CNCCC1CCCO1 (stereo not given) | 6.91%
CN(C)S(=O)(=O)NCc1ccc(Cn2ccnc2)cc1 | -10.43%
Cn1cnnc1CCNC(=O)c1cc(Cl)c(Cl)n1C | 15.17%
CCC(c1ccc(F)cc1)N1CC[S+]([O-])CC1 (stereo not given) | 11.41%
N#Cc1ccc(Br)o1 | 8.03%
CNC(=O)C(C)Sc1nccn1-c1ccc(OC)cc1 (stereo not given) | 17.22%
O=C(C1CCCO1)N1CCN(c2cc(Br)ccn2)CC1 (stereo not given) | 3.3%
O=C(CC1CCCN1)c1ccco1 (stereo not given) | 24.64%
N#Cc1ccc(CN2CCC3(CCC3O)CC2)cc1 (stereo not given) | 20.3%
OC1(CNCc2ccccn2)CCc2ccccc21 (stereo not given) | 24.9%
CN(Cc1ccc2c(c1)OCO2)C(=O)c1cncs1 | 25.32%
Cc1n[nH]cc1CNCc1ccc(-n2ccnc2)nc1 | 0.04%
Fc1ccc2nc(N3CCCNCC3)oc2c1F | 33.45%
Cc1c(Cl)cccc1C(=O)NC(C)c1nnnn1C (stereo not given) | 8.95%
